Assignment: determine reported IC50 for the given compounds.
molecular target: Histone deacetylase; assay: Inhibition of HDAC in HeLa nuclear extract in presence of DTT; format: protein assay, Homo sapiens
Numbers only, in nM.

Use these answered entries as a reference point.
> print(dat)
                                smiles.text      subject.of.test  quantity.name  readout.units  measurement
1  CC(C)[C@H]1NC(=O)C[C@H]2/C=C/CCSSC[C@@H](NC1=O)C(=O)N[C@H](C(C)C)C(=O)NCC(=O)O2  Histone deacetylase           IC50             nM          7.2
2  CC(C)[C@H]1NC(=O)[C@@H](C)NC(=O)[C@@H](C)NC(=O)C[C@@H](/C=C/CCS)OC(=O)CNC1=O  Histone deacetylase           IC50             nM            7
3  CC(=O)SCC/C=C/[C@@H]1CC(=O)N[C@H](C)C(=O)N[C@H](C)C(=O)N[C@H](C(C)C)C(=O)NCC(=O)O1  Histone deacetylase           IC50             nM          242

Consider the record given below.
Identify measured IC50 corresponding to "CC(C)[C@H]1NC(=O)[C@H]2CSSCC/C=C/[C@H](CC(=O)N[C@H](C)C(=O)N2)OC(=O)CNC1=O"
15

###

tested on: MCF7; assay: Growth inhibition of MCF7 cells; type: functional, cell-based; details: Homo sapiens
Quantity Name: IC50

Use these answered entries as a reference point.
> print(dat)
                                smiles.text  quantity.name  measurement
1  CC(C)[C@H]1NC(=O)[C@@H](C)NC(=O)[C@@H](C)NC(=O)C[C@@H](/C=C/CCS)OC(=O)CNC1=O           IC50    > 1000 nM
2  CC(C)[C@H]1NC(=O)C[C@H]2/C=C/CCSSC[C@@H](NC1=O)C(=O)N[C@H](C(C)C)C(=O)NCC(=O)O2           IC50       5.1 nM
3  CC(=O)SCC/C=C/[C@@H]1CC(=O)N[C@H](C)C(=O)N[C@H](C)C(=O)N[C@H](C(C)C)C(=O)NCC(=O)O1           IC50        55 nM
4  COC(=O)CNC(=O)[C@H](NC(=O)[C@H]1CSSCC/C=C/[C@@H](O)CC(=O)N[C@H](C)C(=O)N1)C(C)C           IC50    > 1000 nM

Consider the record given below.
Identify measured IC50 corresponding to "CC(C)[C@H]1NC(=O)[C@H]2CSSCC/C=C/[C@H](CC(=O)N[C@H](C)C(=O)N2)OC(=O)CNC1=O"
37 nM

###

These compounds were tested on Protein deacetylase HDAC6 (Homo sapiens, UniProt Q9UBN7); IC50 is the recorded read-out.
Sequence (Q9UBN7 whole entry): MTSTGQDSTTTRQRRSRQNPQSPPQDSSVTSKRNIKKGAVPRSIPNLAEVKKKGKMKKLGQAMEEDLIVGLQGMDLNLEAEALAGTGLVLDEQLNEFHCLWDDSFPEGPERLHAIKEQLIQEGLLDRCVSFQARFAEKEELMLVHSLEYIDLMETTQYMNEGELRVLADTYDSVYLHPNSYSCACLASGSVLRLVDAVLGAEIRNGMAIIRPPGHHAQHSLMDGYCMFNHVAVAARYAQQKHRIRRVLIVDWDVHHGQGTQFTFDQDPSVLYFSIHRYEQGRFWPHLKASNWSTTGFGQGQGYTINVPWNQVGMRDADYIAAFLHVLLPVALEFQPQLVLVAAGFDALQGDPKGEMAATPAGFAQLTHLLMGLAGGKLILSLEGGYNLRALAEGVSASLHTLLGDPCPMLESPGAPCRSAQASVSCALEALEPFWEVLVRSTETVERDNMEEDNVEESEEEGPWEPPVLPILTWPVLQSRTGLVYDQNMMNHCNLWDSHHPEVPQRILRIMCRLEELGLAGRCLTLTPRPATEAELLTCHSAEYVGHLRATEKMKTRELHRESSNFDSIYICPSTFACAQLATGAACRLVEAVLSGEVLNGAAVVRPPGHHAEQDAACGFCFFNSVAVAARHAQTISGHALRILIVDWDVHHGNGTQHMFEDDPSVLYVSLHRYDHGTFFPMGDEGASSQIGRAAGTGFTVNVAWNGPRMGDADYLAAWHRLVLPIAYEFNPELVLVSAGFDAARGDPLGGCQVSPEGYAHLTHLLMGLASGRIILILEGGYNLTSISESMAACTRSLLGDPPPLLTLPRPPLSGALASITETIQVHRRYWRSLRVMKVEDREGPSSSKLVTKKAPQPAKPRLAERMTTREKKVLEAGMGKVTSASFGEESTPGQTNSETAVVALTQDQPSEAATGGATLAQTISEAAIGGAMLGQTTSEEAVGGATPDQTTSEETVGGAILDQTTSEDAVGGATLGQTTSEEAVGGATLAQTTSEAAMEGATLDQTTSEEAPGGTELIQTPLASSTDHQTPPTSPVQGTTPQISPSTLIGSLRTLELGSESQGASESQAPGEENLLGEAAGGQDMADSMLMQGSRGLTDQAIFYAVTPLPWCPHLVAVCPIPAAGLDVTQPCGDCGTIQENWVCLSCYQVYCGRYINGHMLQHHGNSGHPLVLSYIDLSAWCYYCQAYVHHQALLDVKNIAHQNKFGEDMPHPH
One number for each entry, in µM.

> print(dat)
                                smiles.text                           subject.of.test  quantity.name  readout.units  measurement
1  CC(C)[C@H]1NC(=O)[C@@H](C)NC(=O)[C@@H](C)NC(=O)C[C@@H](/C=C/CCS)OC(=O)CNC1=O  Protein deacetylase HDAC6 (Homo sapiens, UniProt Q9UBN7)           IC50             µM         4.92

Consider the record given below.
Identify measured IC50 corresponding to "CC(C)[C@H]1NC(=O)[C@H]2CSSCC/C=C/[C@H](CC(=O)N[C@H](C)C(=O)N2)OC(=O)CNC1=O"
0.881

The measured values listed here are drawn from ChEMBL document CHEMBL1138260.
